Molecular target: G9a histone lysine methyltransferase (Homo sapiens (Human))
Sequence (Q96KQ7 whole entry): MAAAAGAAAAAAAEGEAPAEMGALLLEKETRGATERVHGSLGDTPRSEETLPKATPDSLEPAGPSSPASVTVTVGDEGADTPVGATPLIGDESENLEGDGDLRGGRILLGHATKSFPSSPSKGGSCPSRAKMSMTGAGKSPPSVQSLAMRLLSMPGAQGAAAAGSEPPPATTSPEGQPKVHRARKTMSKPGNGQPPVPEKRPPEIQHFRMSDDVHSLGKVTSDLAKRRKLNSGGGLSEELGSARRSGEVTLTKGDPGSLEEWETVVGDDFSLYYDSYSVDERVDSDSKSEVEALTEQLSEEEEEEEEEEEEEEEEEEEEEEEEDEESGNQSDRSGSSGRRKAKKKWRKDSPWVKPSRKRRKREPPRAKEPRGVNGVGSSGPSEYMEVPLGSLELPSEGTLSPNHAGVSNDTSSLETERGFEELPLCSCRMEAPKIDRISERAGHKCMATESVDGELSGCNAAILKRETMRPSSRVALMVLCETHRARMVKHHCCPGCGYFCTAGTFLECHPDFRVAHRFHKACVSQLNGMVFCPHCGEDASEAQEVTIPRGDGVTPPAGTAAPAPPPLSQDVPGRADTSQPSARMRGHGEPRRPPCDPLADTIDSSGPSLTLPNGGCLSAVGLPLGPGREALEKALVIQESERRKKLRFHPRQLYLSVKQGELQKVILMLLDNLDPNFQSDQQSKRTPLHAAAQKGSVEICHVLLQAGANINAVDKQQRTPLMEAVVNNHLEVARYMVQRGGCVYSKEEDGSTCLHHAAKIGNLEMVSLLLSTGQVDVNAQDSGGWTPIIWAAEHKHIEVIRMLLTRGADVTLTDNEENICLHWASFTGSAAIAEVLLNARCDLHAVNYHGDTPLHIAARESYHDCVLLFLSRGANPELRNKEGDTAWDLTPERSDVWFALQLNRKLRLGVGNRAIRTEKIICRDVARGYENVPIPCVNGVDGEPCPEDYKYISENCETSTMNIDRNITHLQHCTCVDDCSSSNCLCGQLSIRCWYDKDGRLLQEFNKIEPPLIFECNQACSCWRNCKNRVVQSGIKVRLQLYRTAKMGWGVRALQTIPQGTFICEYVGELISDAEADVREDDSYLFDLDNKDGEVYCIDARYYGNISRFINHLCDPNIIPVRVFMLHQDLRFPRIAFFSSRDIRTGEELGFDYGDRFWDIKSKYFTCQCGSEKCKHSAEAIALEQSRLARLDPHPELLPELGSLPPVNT
Assay: in vitro methyltransferase assay, G9a enzyme activity
Type: biochemical
Details: read-out: IC50, inhibitory activity towards G9a histone lysine methyltransferase
pIC50: −log10 of the molar value.
Value kind: pIC50

INSERT INTO assay_data (compound_string, target_desc, reported_measurement) VALUES
  ('COc1cc2nc(NC3CC3)nc(NC3CCN(C(C)C)CC3)c2cc1OC', 'G9a histone lysine methyltransferase (Homo sapiens (Human))', 6.33);

====

Biological target: STK19D89N (Homo sapiens (Human), UniProt P49842, D89N)
Sequence (P49842 other isoform, or with tags, fused parts or gaps D89N): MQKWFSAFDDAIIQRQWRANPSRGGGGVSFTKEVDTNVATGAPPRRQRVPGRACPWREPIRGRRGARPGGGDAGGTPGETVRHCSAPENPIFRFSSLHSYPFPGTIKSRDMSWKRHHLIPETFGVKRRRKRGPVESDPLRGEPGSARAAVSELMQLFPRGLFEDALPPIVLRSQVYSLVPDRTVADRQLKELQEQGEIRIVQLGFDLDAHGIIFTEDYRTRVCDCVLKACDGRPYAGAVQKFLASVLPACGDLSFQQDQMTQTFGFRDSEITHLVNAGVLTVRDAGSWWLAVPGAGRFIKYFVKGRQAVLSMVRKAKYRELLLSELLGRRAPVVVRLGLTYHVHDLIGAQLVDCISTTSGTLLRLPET
Test: STK19 kinase assay, D89N mutant
Conditions: read-out: IC50 for STK19D89N
pIC50: −log10 of the molar value.
Value kind: pIC50

INSERT INTO assay_data (compound_string, reported_measurement) VALUES
  ('COc1cc2nc(NC3CC3)nc(NC3CCN(C(C)C)CC3)c2cc1OC', 7.55);
